read-out: Interleukin-1 alpha (IL1a), IL1A (gene 3552); assay: BSK_BE3C_IL1a: BioMAP Diversity Plus: BE3C Assay for Interleukin-1 alpha (IL1a) Biomarker Activity (AID 2283016); details: primary human bronchial epithelial cells; actives raise or lower the signal
The source made the active and inactive calls. The calls were made as follows: active = hit-call score of the fitted dose curve at least 0.9, where 1 is the maximum; inactive = score below 0.9.
Choose the fitting class; nothing outside active, inactive is accepted.

Recorded test outcome, item ClC1=C(Cl)[C@]2(Cl)[C@H]3[C@H]([C@H]4C=C[C@H]3C4)[C@@]1(Cl)C2(Cl)Cl
inactive

Recorded test outcome, item CC12CC1(C)C(=O)N(c1cc(Cl)cc(Cl)c1)C2=O (centres undefined)
inactive

Recorded test outcome, item CCCCCCCCc1ccc(O)cc1
active

Recorded test outcome, item Cn1sc(Cl)cc1=O
inactive

Recorded test outcome, item NC(=S)Nc1ccccc1
inactive

Recorded test outcome, item CCSC(C)CC1CC(=O)C(C(CC)=NOC/C=C/Cl)=C(O)C1 (centres undefined)
inactive

Recorded test outcome, item CCOP(=S)(OCC)SCSP(=S)(OCC)OCC
inactive

Recorded test outcome, item CC(C)(c1ccccc1)c1ccc(O)c(C(C)(C)c2ccccc2)c1
active

Recorded test outcome, item CC(=O)OC(c1ccccc1)C(Cl)(Cl)Cl (centres undefined)
inactive

Recorded test outcome, item Oc1c(I)cc(I)cc1I
active

Recorded test outcome, item O=[N+]([O-])c1ccc(O)c([N+](=O)[O-])c1
inactive

Recorded test outcome, item CN(C)N=O
inactive

Recorded test outcome, item CCCCC(CC)CO[N+](=O)[O-] (centres undefined)
inactive

Recorded test outcome, item COP(=S)(OC)Oc1ccc(S(=O)(=O)N(C)C)cc1
inactive

The measurements presented in this section are drawn from PubChem BioAssay (EPA / NIEHS).
